Where do these numbers come from? They come from patent US20190389910A1.

# assayedSystem: human recombinant integrin αvβ6 (αv extracellular domain-acidic leucine zipper-His×6 with β6 extracellular domain-basic leucine zipper) (human) (UniProt P06756)
# Sequence (P06756 other isoform, or with tags, fused parts or gaps, chain 1 of 2): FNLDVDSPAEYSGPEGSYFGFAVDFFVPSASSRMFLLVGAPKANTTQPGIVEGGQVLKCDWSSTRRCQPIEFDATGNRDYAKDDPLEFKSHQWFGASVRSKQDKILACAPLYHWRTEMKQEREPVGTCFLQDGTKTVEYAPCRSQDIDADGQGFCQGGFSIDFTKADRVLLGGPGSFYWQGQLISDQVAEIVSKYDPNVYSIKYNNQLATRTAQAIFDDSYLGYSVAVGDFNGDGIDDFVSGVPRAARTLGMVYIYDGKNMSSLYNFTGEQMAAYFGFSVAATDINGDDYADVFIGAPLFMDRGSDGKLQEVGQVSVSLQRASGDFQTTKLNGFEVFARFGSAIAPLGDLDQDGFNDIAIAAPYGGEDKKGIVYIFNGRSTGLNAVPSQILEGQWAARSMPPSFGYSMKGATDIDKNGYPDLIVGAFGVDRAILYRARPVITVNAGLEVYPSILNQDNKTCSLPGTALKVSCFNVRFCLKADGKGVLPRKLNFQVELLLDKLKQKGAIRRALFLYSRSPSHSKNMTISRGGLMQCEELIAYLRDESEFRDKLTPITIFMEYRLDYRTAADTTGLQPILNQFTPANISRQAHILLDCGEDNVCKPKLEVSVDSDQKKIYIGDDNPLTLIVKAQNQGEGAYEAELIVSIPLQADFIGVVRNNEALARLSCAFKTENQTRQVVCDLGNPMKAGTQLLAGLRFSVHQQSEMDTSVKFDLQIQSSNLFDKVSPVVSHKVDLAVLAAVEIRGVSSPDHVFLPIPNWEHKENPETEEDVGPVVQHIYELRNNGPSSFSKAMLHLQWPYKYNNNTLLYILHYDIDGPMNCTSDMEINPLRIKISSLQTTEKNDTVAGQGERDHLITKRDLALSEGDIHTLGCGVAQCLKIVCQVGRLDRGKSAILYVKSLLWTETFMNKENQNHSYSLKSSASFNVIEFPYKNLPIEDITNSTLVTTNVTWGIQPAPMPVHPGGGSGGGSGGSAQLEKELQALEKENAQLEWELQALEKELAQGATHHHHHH
# Sequence (chain, as listed by the source, chain 2 of 2): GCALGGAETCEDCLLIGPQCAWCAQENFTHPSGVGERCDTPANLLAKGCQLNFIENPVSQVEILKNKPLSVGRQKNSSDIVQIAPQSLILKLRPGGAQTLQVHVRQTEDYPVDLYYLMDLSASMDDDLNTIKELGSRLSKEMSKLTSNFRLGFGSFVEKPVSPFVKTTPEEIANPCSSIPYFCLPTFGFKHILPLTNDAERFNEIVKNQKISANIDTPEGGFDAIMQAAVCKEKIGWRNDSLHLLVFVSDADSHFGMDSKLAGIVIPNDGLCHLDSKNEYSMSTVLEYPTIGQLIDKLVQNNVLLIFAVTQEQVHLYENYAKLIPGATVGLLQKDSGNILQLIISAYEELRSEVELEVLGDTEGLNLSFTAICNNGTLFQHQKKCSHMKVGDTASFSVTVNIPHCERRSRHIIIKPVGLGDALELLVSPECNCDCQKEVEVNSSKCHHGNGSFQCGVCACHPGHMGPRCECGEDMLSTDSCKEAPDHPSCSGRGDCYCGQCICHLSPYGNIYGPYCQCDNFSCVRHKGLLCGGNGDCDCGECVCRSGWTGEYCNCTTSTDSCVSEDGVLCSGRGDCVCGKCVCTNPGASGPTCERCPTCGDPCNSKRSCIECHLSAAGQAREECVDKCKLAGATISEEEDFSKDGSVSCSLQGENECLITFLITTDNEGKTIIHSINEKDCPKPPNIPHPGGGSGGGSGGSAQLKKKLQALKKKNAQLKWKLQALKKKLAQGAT
# testSummary: BLI (Octet), antibody captured on anti-human IgG Fc (AHC) biosensor, integrin αvβ6 3.1-100 nM as analyte, divalent cations
parameter: kon (M⁻¹ s⁻¹)
Give the quantity in M⁻¹ s⁻¹, number only.

Would you please look over these solved cases?
Lookup: Sample 6#4-Ras03 (antibody, part only; not given: RT22 heavy chain, light constant, V domains shown, not shown: another chain or arm of the molecule; a dimerising Fc or GST, chain 1: disulfide bond Cys6-Cys16 closes the cyclic peptide) VL: ESFRPCQYRGDLFVLCFPSDMGSSSNDIQMTQSPSSLSASVGDRVTITCKSSQSLLNSRDGKNYLAWYQQKPGKAPKLLIYWASTRESGVPSRFSGSGSGTDFTLTISSLQPEDFATYFCQQYWYWMYTFGQGTKVEIK — what was its kon?
Found: 175000

Lookup: Sample SFITGv6-Ras03 (antibody, part only; not given: RT22 heavy chain, constant regions, V domains shown, not shown: another chain or arm of the molecule; a dimerising Fc or GST; large carriers; small tags and cut ends, chain 1: disulfide bond Cys3-Cys13 closes the SFITGv6 cyclic peptide) VL: GRCTFRGDLMQLCYPDMGSSSNDIQMTQSPSSLSASVGDRVTITCKSSQSLLNSRDGKNYLAWYQQKPGKAPKLLIYWASTRESGVPSRFSGSGSGTDFTLTISSLQPEDFATYFCQQYWYWMYTFGQGTKVEIK — what was its kon?
Found: 279000

Lookup: Sample 6#6-Ras03 (antibody, part only; not given: RT22 heavy chain, light constant, V domains shown, not shown: another chain or arm of the molecule; a dimerising Fc or GST, chain 1: disulfide bond Cys6-Cys16 closes the cyclic peptide) VL: LGPLPCQTRGDLFSLCHYMGSSSNDIQMTQSPSSLSASVGDRVTITCKSSQSLLNSRDGKNYLAWYQQKPGKAPKLLIYWASTRESGVPSRFSGSGSGTDFTLTISSLQPEDFATYFCQQYWYWMYTFGQGTKVEIK — what was its kon?
Found: 216000

Lookup: Sample 6#2-Ras03 (antibody, part only; not given: RT22 heavy chain, constant regions, V domains shown, not shown: another chain or arm of the molecule; a dimerising Fc or GST; large carriers; small tags and cut ends, chain 1: disulfide bond Cys6-Cys16 closes the 6#2 cyclic peptide) VL: HVEFPCTRRGDLFVLCEGSMGSSSNDIQMTQSPSSLSASVGDRVTITCKSSQSLLNSRDGKNYLAWYQQKPGKAPKLLIYWASTRESGVPSRFSGSGSGTDFTLTISSLQPEDFATYFCQQYWYWMYTFGQGTKVEIK — what was its kon?
Found: 212000

---
Lookup: Sample 6#8-Ras03 (antibody, part only; not given: RT22 heavy chain, light constant, V domains shown, not shown: another chain or arm of the molecule; a dimerising Fc or GST, chain 1: disulfide bond Cys6-Cys16 closes the cyclic peptide) VL: FPNNQCQHRGDLFALCADMGSSSNDIQMTQSPSSLSASVGDRVTITCKSSQSLLNSRDGKNYLAWYQQKPGKAPKLLIYWASTRESGVPSRFSGSGSGTDFTLTISSLQPEDFATYFCQQYWYWMYTFGQGTKVEIK — what was its kon?
Found: 184000
